system: RL95-2 (Endometrial Carcinoma); experiment: Bliss excess, mean over the matrix (fraction); higher = more synergy;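 also: after 72 h of two-drug dosing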
measured.metric: Bliss excess

[[record]]
molecule = "CC(=O)c1c(C)c2cnc(Nc3ccc(N4CCNCC4)cn3)nc2n(C2CCCC2)c1=O [Palbociclib] + CC1(C)CCC(CN2CCN(c3ccc(C(=O)NS(=O)(=O)c4ccc(NCC5CCOCC5)c([N+](=O)[O-])c4)c(Oc4cnc5[nH]ccc5c4)c3)CC2)=C(c2ccc(Cl)cc2)C1 [Venetoclax] (first compound max 10 µM, 7x7, partner max 1 µM)"
measured_metric = "Bliss excess"
result = 0.0133

[[record]]
molecule = "CC1(C)CCC(CN2CCN(c3ccc(C(=O)NS(=O)(=O)c4ccc(NCC5CCOCC5)c([N+](=O)[O-])c4)c(Oc4cnc5[nH]ccc5c4)c3)CC2)=C(c2ccc(Cl)cc2)C1 [Venetoclax] + C[C@@H](Nc1cc(F)cc(F)c1)c1cc(C(=O)N(C)C)cc2c(=O)cc(N3CCOCC3)oc12 [AZD8186] (first compound max 1 µM, 7x7, partner max 3 µM)"
measured_metric = "Bliss excess"
result = -0.0189

[[record]]
molecule = "C[C@@H](c1ccc2nccn2c1)n1nnc2ncc(-c3cnn(C)c3)nc21 [Savolitinib] + CN(CC[C@H](CSC1=CC=CC=C1)NC2=C(C=C(C=C2)S(=O)(=O)NC(=O)C3=CC=C(C=C3)N4CCC(CC4)[C@H](C5=CC=CC=C5C6=CC=C(C=C6)Cl)O)S(=O)(=O)C(F)(F)F)CCO [AZD4320] (first compound max 1 µM, 7x7, partner max 1 µM)"
measured_metric = "Bliss excess"
result = -0.0297

[[record]]
molecule = "CN(C)CCCOc1ccc(-c2ccc3ncc4c(c3c2)n(C2CCOCC2)c(=O)n4C)cn1 [AZD0156] + C=CCn1c(=O)c2cnc(Nc3ccc(N4CCN(C)CC4)cc3)nc2n1-c1cccc(C(C)(C)O)n1 [AZD1775] (first compound max 1 µM, partner max 1 µM)"
measured_metric = "Bliss excess"
result = -0.03

[[record]]
molecule = "CC(=O)Nc1cccc(-n2c(=O)n(C3CC3)c(=O)c3c(Nc4ccc(I)cc4F)n(C)c(=O)c(C)c32)c1 [Trametinib] + Cc1nc(-c2cn3c(n2)-c2ccc(-c4cnn(C(C)(C)C(N)=O)c4)cc2OCC3)n(C(C)C)n1 [Taselisib] (first compound max 1 µM, 7x7, partner max 10 µM)"
measured_metric = "Bliss excess"
result = 0.0378

[[record]]
molecule = "COc1nnc2ccc(N3CCC(c4ccc(OCCN5CCN(C)C(=O)[C@H]5C)cc4)CC3)nn12 [AZD5153] + Cn1cnc2c(F)c(Nc3ccc(Br)cc3Cl)c(C(=O)NOCCO)cc21 [Selumetinib] (first compound max 1 µM, 7x7, partner max 10 µM)"
measured_metric = "Bliss excess"
result = -0.0221


* * *

system: OVTOKO (Ovarian Carcinoma); test: combination Emax (second highest fraction inhibited in the dose matrix, 72 h); higher = more inhibition; extreme values may be limits of the assay
Measured combination Emax, listed per entry for reference.
measured.metric: combination Emax

[[record]]
compound = "CN(CCO)CC[C@H](CSc1ccccc1)Nc1ccc(S(=O)(=O)NC(=O)c2ccc(N3CCC([C@@H](O)c4ccccc4-c4ccc(Cl)cc4)CC3)cc2)cc1S(=O)(=O)C(F)(F)F [AZD4320] + Cn1cnc2c(F)c(Nc3ccc(Br)cc3Cl)c(C(=O)NOCCO)cc21 [Selumetinib] (first compound max 1 µM, 7x7, partner max 3 µM)"
measured_metric = "combination Emax"
result = 0.318

[[record]]
compound = "Cc1c2c(nn1C)CSCc1cc(n(C)n1)CSc1cc(c3ccccc3c1)OCCCc1c(C(=O)O)n(C)c3c-2c(Cl)ccc13 [AZD5991] + C1CN(CCC1(C(=O)N[C@@H](CCO)C2=CC=C(C=C2)Cl)N)C3=NC=NC4=C3C=CN4 [Capivasertib] (first compound max 1 µM, 7x7, partner max 3 µM)"
measured_metric = "combination Emax"
result = 0.367

[[record]]
compound = "CN(CCO)CC[C@H](CSc1ccccc1)Nc1ccc(S(=O)(=O)NC(=O)c2ccc(N3CCC([C@@H](O)c4ccccc4-c4ccc(Cl)cc4)CC3)cc2)cc1S(=O)(=O)C(F)(F)F [AZD4320] + Cc1cc2ncnn2cc1Nc1ncc2c(n1)n(C1CCOCC1)c(=O)n2C [AZD7648] (first compound max 1 µM, 7x7, partner max 10 µM)"
measured_metric = "combination Emax"
result = 0.361

[[record]]
compound = "Cn1cnc2c(F)c(Nc3ccc(Br)cc3Cl)c(C(=O)NOCCO)cc21 [Selumetinib] + C=CCn1c(=O)c2cnc(Nc3ccc(N4CCN(C)CC4)cc3)nc2n1-c1cccc(C(C)(C)O)n1 [AZD1775] (first compound max 10 µM, partner max 1 µM)"
measured_metric = "combination Emax"
result = 0.452

[[record]]
compound = "CN(CCO)CC[C@H](CSc1ccccc1)Nc1ccc(S(=O)(=O)NC(=O)c2ccc(N3CCC([C@@H](O)c4ccccc4-c4ccc(Cl)cc4)CC3)cc2)cc1S(=O)(=O)C(F)(F)F [AZD4320] + C[C@@H]1COCCN1C2=NC(=NC(=C2)C3(CC3)[S@](=N)(=O)C)C4=C5C=CNC5=NC=C4 [AZD6738] (first compound max 1 µM, 7x7, partner max 10 µM)"
measured_metric = "combination Emax"
result = 0.54

[[record]]
compound = "NC1(C(=O)N[C@@H](CCO)c2ccc(Cl)cc2)CCN(c2ncnc3[nH]ccc23)CC1 [Capivasertib] + COc1nnc2ccc(N3CCC(c4ccc(OCCN5CCN(C)C(=O)[C@H]5C)cc4)CC3)nn12 [AZD5153] (first compound max 10 µM, 7x7, partner max 1 µM)"
measured_metric = "combination Emax"
result = 0.604

[[record]]
compound = "Cc1cc2ncnn2cc1Nc1ncc2c(n1)n(C1CCOCC1)c(=O)n2C [AZD7648] + C=CCn1c(=O)c2cnc(Nc3ccc(N4CCN(C)CC4)cc3)nc2n1-c1cccc(C(C)(C)O)n1 [AZD1775] (first compound max 10 µM, partner max 1 µM)"
measured_metric = "combination Emax"
result = 0.561

